Details: in acetonitrile, 283.24 K

compound | solubility (mole fraction)
c1ccc(-c2ccc(C(c3ccccc3)n3ccnc3)cc2)cc1 (stereo unspecified) | 0.00109

----------
Settings: in n-propyl acetate, 318.16 K
outcome_measure: solubility (mole fraction)

compound | assay_value
c1ccc(-c2ccc(C(c3ccccc3)n3ccnc3)cc2)cc1 (stereo unspecified) | 0.0106

----------
Details: in n-pentanol, 298.19 K
outcome_measure: solubility (mole fraction)

compound | outcome_measure | assay_value
c1ccc(-c2ccc(C(c3ccccc3)n3ccnc3)cc2)cc1 (stereo unspecified) | solubility (mole fraction) | 0.00941

----------
Settings: in acetonitrile, 288.17 K
outcome_measure: solubility (mole fraction)

molecule | assay_value
c1ccc(-c2ccc(C(c3ccccc3)n3ccnc3)cc2)cc1 (stereo unspecified) | 0.0014

The measurements presented in this section are drawn from BigSolDB 2.1.
